Numbers sourced from patent US11746098B2.

target: USP14 (Homo sapiens, UniProt P54578)
Measurement Name: IC50

Entry COc1cc(NS(=O)(=O)c2ccc(-n3c(C)cc(C(=O)CN4CCCCC4)c3C)cc2)nc(OC)n1 , system USP14 (Homo sapiens, UniProt P54578): what IC50 was measured?
> 5 µM

---

target: USP14 (Homo sapiens, UniProt P54578); assay: USP14 Inhibition Assay; format: biochemical; conditions: average value from a minimum of two experimental determinations, read-out: IC50 Category
Some compounds, each annotated with its measured IC50.

Compound: Cc1cc(C(=O)CN[C@H](C)C2CCCCC2)c(C)n1-c1ccc(Cl)cc1
Assayed Target: USP14 (Homo sapiens, UniProt P54578)
IC50: > 5 µM
//
Compound: Cc1cc(C(=O)CN2CCC(N(C)C)C2)c(C)n1-c1ccc(Cl)cc1 (stereo not drawn)
Assayed Target: USP14 (Homo sapiens, UniProt P54578)
IC50: 0.5 to 5 µM

Report IC50 for CC#Cc1ccc(-n2c(C)cc(C(=O)CN3CCC(O)CC3)c2C)cc1 tested on USP14 (Homo sapiens, UniProt P54578).
0.5 to 5 µM

---

pIC50 by entry:
molecular target: USP14 (Homo sapiens); assay: USP14 Inhibition Assay; assay type: biochemical; settings: average value from a minimum of two experimental determinations, read-out: IC50 Category
pIC50: −log10 of the molar value.

The examples below pair each entry with its known result.
Compound: Cc1cc(C(=O)CN2CCCC(CNC(=O)OC(C)(C)C)C2)c(C)n1-c1ccc(C#N)cc1 (stereo not drawn)
Value Reported: > 6.30

Compound: Cc1cc(C(=O)C[N+]2(C)CCCCC2)c(C)n1-c1ccc(Cl)cc1
Value Reported: < 5.30

Compound: Cc1cc(C(=O)CN2CCC(C(F)(F)F)CC2)c(C)n1-c1ccc(Cl)cc1
Value Reported: 5.30 to 6.30

Compound: Cc1cc(Cl)cc(C)c1-n1ccc(C(=O)CN2CCC(O)CC2)c1
Value Reported: < 5.30

Compound: Cc1cc(C(=O)CC2CCCNC2)c(C)n1-c1ccc(Cl)cc1 (stereo not drawn)
Value Reported: < 5.30

Query pIC50 on USP14 (Homo sapiens) for Cc1cc(C(=O)CN2CCCCC2)c(C)n1[C@H]1CC[C@@H](C(=O)O)CC1
< 5.30

USP14 (Homo sapiens) / pIC50 / CC#Cc1ccc(-n2c(C)cc(C(=O)CN3CCCCC3)c2C)cc1 : value?
5.30 to 6.30

Short answer please: pIC50, USP14 (Homo sapiens), entry Cc1cc(C(=O)CN2CCCCC2)c(C)n1[C@H]1CC[C@H](C#N)CC1
5.30 to 6.30

---

IC50 data for USP14 (Homo sapiens, UniProt P54578) follow.

Answered examples (5):
Compound: CCCNC(=O)OC1CCCN(CC(=O)c2cc(C)n(-c3ccc(Cl)cc3)c2C)C1 (centres unmarked)
Measurement Name: IC50
Value Reported: 0.5 to 5 µM

Compound: Cc1c(C(=O)CN2CCC(O)CC2)c(C)n(-c2ccc(Cl)cc2)c1C
Measurement Name: IC50
Value Reported: 0.5 to 5 µM

Compound: Cc1cc(C(=O)CN2CCCCC2)c(C)n1-c1ccc(O)cc1
Measurement Name: IC50
Value Reported: > 5 µM

Compound: Cc1cc(C(=O)CN(CCOCc2ccccc2)CC(=O)c2cc(C)n(-c3ccc(C#N)cc3)c2C)c(C)n1-c1ccc(C#N)cc1
Measurement Name: IC50
Value Reported: > 5 µM

Compound: Cc1cc(C(=O)CN2CCCCC2)c(C)n1-c1cccc2ccccc12
Measurement Name: IC50
Value Reported: > 5 µM

Reported IC50 for Cc1cc(C(=O)CN2CCC(O)CC2)c(C)n1-c1ccc(OC(F)(F)F)cc1 : what is it?
0.5 to 5 µM

Tell me the measured IC50 of Cc1cc(C(=O)CN2CCCCC2)c(C)n1C1CCC(F)(F)CC1 , please.
0.5 to 5 µM

I have this compound here, Cc1cc(C(=O)CN2CCCCC2)c(C)n1-c1ccc(C(=O)OCc2ccccc2)cc1 , and I need its recorded IC50.
> 5 µM

// returns reported IC50 for input Cc1cc(C(=O)CN2CCC(OCC(=O)N3CCCCC3)CC2)c(C)n1-c1ccc(Cl)cc1
< 0.5 µM

Can you look up the measured IC50 of CCCNC(=O)COC1CCN(CC(=O)c2cc(C)n(-c3ccc(Cl)cc3)c2C)CC1 for me?
< 0.5 µM

Consider the compound shown here: Cc1cc(C(=O)CN2CCC(OCC(=O)NC(C)(C)C)CC2)c(C)n1-c1ccc(Cl)cc1 What is its recorded IC50?
< 0.5 µM

For the compound Cc1cc(C(=O)CN2CCCC2)c(C)n1-c1ccc(O)cc1 , what IC50 is on record?
> 5 µM

Look up IC50 for this compound: Cc1cc(C(=O)CN2CCCCC2)c(C)n1[C@H]1CC[C@@H](C(N)=O)CC1
> 5 µM

State the recorded IC50 for this entry: Cc1cc(C(=O)CN2CCC(O)CC2)c(C)n1-c1ccc(F)c(F)c1
0.5 to 5 µM
